These measurements were taken from patent US20100137421A1.

- Tested on: A549 (lung)
- protocol-text: Trypan-blue exclusion assay, A549
- Assay type: cell-based
measure-name: IC50 (µM)
Numbers only, in µM.

What value of IC50 has been reported for the following compound? `CC(C)=CCc1c2c(c(O)c3c1O[C@@]14C(=C[C@H]5CC1C(C)(C)O[C@]4(CC=C(C)C)C5=O)C3=O)C=CC(C)(C)O2`
2.1

====

- Tested on: CEM T-cell acute lymphoblastic leukemia cell line
- protocol-text: Trypan-blue exclusion assay, CEM
- Type: cell-based
- settings: Homo sapiens, CEM-4, 96 h, read-out: IC50 (μM), CEM leukemia
measure-name: IC50 (µM)
One number for each entry, in µM.

What value of IC50 has been reported for the following compound? CC(C)=CCCC1(C)C=Cc2c(O)c3c(c(CC=C(C)C)c2O1)O[C@]12C(=CC4C[C@H]1C(C)(C)OC2(CC=C(C)C)C4=O)C3=O (stereo partly shown) [gambogin]
0.35
